A short record of IC50 observed with JAK1 (Homo sapiens, UniProt P23458) follows.
Sequence (P23458 whole entry): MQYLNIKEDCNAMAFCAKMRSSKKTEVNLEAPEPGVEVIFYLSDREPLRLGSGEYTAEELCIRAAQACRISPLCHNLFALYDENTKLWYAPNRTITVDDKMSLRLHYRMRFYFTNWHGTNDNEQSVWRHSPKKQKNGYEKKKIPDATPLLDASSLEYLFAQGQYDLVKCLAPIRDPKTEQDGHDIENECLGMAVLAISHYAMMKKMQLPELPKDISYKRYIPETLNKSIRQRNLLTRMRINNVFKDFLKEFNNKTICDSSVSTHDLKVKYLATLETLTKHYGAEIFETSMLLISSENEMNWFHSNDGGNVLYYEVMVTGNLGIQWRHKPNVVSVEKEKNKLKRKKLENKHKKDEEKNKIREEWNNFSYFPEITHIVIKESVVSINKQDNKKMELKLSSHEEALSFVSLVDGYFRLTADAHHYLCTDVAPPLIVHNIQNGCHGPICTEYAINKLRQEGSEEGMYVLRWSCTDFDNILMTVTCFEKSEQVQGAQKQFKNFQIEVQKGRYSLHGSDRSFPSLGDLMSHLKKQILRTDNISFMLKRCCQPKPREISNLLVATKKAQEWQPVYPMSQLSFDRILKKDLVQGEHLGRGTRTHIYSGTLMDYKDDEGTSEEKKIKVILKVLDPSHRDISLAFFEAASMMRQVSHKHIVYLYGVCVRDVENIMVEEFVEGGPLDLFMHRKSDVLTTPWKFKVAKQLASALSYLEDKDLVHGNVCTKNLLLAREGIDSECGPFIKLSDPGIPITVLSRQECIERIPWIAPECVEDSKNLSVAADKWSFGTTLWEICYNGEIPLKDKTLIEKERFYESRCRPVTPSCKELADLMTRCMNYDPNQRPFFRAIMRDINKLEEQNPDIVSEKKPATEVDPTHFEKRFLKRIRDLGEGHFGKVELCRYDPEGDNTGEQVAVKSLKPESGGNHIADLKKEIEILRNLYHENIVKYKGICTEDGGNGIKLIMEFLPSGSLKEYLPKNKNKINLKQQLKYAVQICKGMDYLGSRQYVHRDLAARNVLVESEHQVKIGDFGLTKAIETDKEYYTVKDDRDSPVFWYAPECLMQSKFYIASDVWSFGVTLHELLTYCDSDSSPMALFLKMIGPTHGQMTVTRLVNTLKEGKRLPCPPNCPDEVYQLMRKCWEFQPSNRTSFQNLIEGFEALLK

Examples with answers:
Cn1cc(-c2cc3nccn3c(-c3cnn(C(CC#N)CC#N)c3)n2)cn1 ... 10 to 100 nM
CN1CCn2c(-c3cc4nccn4c(-c4cnn(C(CC#N)C5CC5)c4)n3)cnc2C1 (centres unmarked) ... 100 to 1000 nM
CC(C)CN1CC(CC#N)(n2cc(-c3nc(-c4cnn(C)c4)cc4nccn34)cn2)C1 ... 100 to 1000 nM
CC(C)N1CC(CC#N)(n2cc(-c3nc(-c4cnn(C)c4)cc4nccn34)cn2)C1 ... > 1000 nM

Name the value of IC50 reported for Cn1cc(-c2ccc(-c3cc4nccn4c(-c4cnn(C(CC#N)C5CC5)c4)n3)cc2)cn1 (centres unmarked) when tested on JAK1 (Homo sapiens, UniProt P23458).
10 to 100 nM

Name the value of IC50 reported for Cn1cc(-c2cc3nccn3c(-c3cnn(C4(CC#N)CN(CC#N)C4)c3)n2)cn1 when tested on JAK1 (Homo sapiens, UniProt P23458).
100 to 1000 nM

Name the value of IC50 reported for Cn1cc(-c2cc3nccn3c(-c3cnn(C4(CC#N)CC5(CCOCC5)C4)c3)n2)cn1 when tested on JAK1 (Homo sapiens, UniProt P23458).
100 to 1000 nM

Name the value of IC50 reported for CCn1cc(-c2cc3nccn3c(-c3cnn(C(CC#N)C4CC4)c3)n2)cn1 (centres unmarked) when tested on JAK1 (Homo sapiens, UniProt P23458).
100 to 1000 nM

Name the value of IC50 reported for Cn1cc(-c2cc3nccn3c(-c3cnn(C4(CC#N)CN(Cc5ccccc5)C4)c3)n2)cn1 when tested on JAK1 (Homo sapiens, UniProt P23458).
> 1000 nM

* * *

A short record of pIC50 observed with Human Tyk2 kinase domain (Homo sapiens) follows.
pIC50: −log10 of the molar value.

Examples with answers:
Cn1cc(-c2cc3nccn3c(-c3cnn(C(CC#N)c4cccnc4)c3)n2)cn1 (stereo not drawn) ... > 8.00
Cn1cc(-c2cc3nccn3c(-c3ccn(C4(CC#N)CN(CC(F)(F)F)C4)c3)n2)cn1 ... > 8.00

Name the value of pIC50 reported for CN1CCC(c2ccc(-c3cc4nccn4c(-c4cnn(C(CC#N)C5CCCC5)c4)n3)cc2)CC1 (single isomer, unassigned) [Example 111] when tested on Human Tyk2 kinase domain (Homo sapiens).
7.00 to 8.00

* * *

A short record of IC50 observed with UniProt O60674 follows.

Examples with answers:
Cn1cc(-c2cc3nccn3c(-c3cnn(C(CC#N)C4CC4)c3)n2)cn1 (stereo not drawn) [Example 2] ... 10 to 100 nM
N#CCC(C1CC1)n1cc(-c2nc(-c3cnn(C4CCC4)c3)cc3nccn23)cn1 (stereo not drawn) ... 10 to 100 nM
COc1ncc(-c2cc3nccn3c(-c3cnn(C4(CC#N)CN(S(=O)(=O)C5CC5)C4)c3)n2)cn1 ... 100 to 1000 nM
CN1CCN(c2ccc(-c3cc4nccn4c(-c4cnn(C5(CC#N)CN(S(=O)(=O)C(F)(F)F)C5)c4)n3)cc2)CC1 ... 10 to 100 nM
Cn1cc(-c2cc3nccn3c(-c3ccn(C4(CC#N)CN(S(=O)(=O)C5CC5)C4)c3)n2)cn1 ... 10 to 100 nM

Would you kindly look at the next entry?
Give IC50 for CC(=O)N1CCC(C(CC#N)n2cc(-c3nc(-c4cnn(C)c4)cc4nccn34)cn2)CC1 (stereo not drawn)
100 to 1000 nM

* * *

Target: Human Tyk2 kinase domain (Homo sapiens, UniProt P29597)
Sequence (P29597 886-1187): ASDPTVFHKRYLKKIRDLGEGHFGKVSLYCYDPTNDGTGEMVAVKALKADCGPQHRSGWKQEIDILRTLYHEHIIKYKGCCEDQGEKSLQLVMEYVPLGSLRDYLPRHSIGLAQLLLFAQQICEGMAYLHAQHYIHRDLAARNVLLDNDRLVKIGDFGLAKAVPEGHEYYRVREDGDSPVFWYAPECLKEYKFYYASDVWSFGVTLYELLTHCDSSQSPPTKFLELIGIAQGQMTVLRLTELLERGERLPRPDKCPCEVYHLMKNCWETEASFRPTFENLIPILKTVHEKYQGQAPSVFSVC
Structures can show the parent of a compound that is named as a salt.
measurement.label: IC50

CC(=O)N1CCC(C(CC#N)n2cc(-c3nc(-c4cnn(C)c4)cc4nccn34)cn2)CC1 (stereo not shown) [Example 27] ... 100 to 1000 nM
Cn1cc(-c2cc3nccn3c(-c3cnn(C(CC#N)C4CC4)c3)n2)cn1 (single isomer, unassigned; enantiomer 2) [Example 4] ... < 10 nM
Cn1cc(-c2cc3nccn3c(-c3cnn(C(CC#N)c4ccccn4)c3)n2)cn1 (stereo not shown) [Example 6] ... 10 to 100 nM

Name the value of IC50 reported for Cn1cc(-c2cc3nccn3c(-c3cnn(C(CC#N)C4CCC4)c3)n2)cn1 (stereo not shown) [Example 20] when tested on Human Tyk2 kinase domain (Homo sapiens, UniProt P29597).
< 10 nM

Name the value of IC50 reported for CC(C)(C)NC(=O)c1cc2nccn2c(-c2cnn(C(CC#N)C3CC3)c2)n1 (stereo not shown) [Example 122] when tested on Human Tyk2 kinase domain (Homo sapiens, UniProt P29597).
100 to 1000 nM

Name the value of IC50 reported for Cn1cc(-c2cc3nccn3c(-c3ccn(C4(CC#N)CNC4)n3)n2)cn1 [Example 130, hydrochloride] when tested on Human Tyk2 kinase domain (Homo sapiens, UniProt P29597).
100 to 1000 nM

Name the value of IC50 reported for Cn1cc(-c2cc3nccn3c(-c3cnn(C(CC#N)c4ccncc4)c3)n2)cn1 (stereo not shown) [Example 8] when tested on Human Tyk2 kinase domain (Homo sapiens, UniProt P29597).
10 to 100 nM

Name the value of IC50 reported for CS(=O)(=O)CCn1cc(-c2cc3nccn3c(-c3ccn(C4(CC#N)CN(CC(F)(F)F)C4)n3)n2)cn1 [Example 143] when tested on Human Tyk2 kinase domain (Homo sapiens, UniProt P29597).
< 10 nM

Name the value of IC50 reported for Cn1cc(-c2cc3nccn3c(-c3ccn(C4(CC#N)CNC4)c3)n2)cn1 [Example 127, trifluoroacetate] when tested on Human Tyk2 kinase domain (Homo sapiens, UniProt P29597).
10 to 100 nM

Name the value of IC50 reported for Cn1cc(-c2cc3nccn3c(-c3cnn(C4(CC#N)CN(CC5CCC5)C4)c3)n2)cn1 [Example 87] when tested on Human Tyk2 kinase domain (Homo sapiens, UniProt P29597).
10 to 100 nM

* * *

A short record of pIC50 observed with JAK2 (Homo sapiens) follows.
Sequence (O60674 whole entry): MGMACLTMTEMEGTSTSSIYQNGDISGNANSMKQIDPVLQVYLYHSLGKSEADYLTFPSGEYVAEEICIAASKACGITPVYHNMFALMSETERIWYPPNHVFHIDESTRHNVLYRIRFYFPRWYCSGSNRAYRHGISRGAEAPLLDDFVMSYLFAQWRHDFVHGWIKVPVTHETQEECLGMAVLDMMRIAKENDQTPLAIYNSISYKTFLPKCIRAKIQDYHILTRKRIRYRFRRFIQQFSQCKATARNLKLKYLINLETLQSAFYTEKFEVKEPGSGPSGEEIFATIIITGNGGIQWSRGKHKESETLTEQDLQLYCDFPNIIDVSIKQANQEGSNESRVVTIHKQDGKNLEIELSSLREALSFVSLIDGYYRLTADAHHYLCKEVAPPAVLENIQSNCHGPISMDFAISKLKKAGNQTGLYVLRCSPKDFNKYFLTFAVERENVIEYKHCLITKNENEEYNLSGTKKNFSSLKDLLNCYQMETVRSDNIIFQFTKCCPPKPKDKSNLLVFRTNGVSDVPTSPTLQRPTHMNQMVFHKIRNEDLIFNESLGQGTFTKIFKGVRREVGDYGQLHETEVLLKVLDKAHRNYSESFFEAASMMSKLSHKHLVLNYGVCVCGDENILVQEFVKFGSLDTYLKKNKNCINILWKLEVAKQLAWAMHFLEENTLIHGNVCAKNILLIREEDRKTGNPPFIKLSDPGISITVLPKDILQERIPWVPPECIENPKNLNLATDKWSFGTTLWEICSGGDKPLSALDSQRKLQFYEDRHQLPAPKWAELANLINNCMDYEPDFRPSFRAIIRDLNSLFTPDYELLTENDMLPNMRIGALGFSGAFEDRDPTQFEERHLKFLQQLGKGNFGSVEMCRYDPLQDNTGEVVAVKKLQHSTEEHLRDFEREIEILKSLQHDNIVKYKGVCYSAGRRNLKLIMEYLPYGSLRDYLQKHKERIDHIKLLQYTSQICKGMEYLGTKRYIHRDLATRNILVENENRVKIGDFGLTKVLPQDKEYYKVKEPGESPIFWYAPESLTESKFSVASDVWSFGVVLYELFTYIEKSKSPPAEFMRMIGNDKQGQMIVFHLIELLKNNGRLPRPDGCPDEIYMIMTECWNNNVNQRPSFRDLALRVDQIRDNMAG
pIC50: −log10 of the molar value.

Examples with answers:
Cn1cc(-c2cc3nccn3c(-c3cnn(C4(CC#N)CN(C5CC5)C4)c3)n2)cn1 [Example 66] ... 6.00 to 7.00
CCCS(=O)(=O)N1CC(CC#N)(n2cc(-c3nc(-c4cnn(C)c4)cc4nccn34)cn2)C1 [Example 93] ... 6.00 to 7.00
N#CCC(C1CCCC1)n1cc(-c2nc(-c3ccc(N4CCOCC4)cc3)cc3nccn23)cn1 (stereo not shown) [Example 113] ... 7.00 to 8.00
Cn1cc(-c2cc3nccn3c(-c3cnn(C4(CC#N)CN(C5COC5)C4)c3)n2)cn1 [Example 67] ... 6.00 to 7.00
Cn1cc(-c2cc3nccn3c(-c3cnn(CCC#N)c3)n2)cn1 [Example 19] ... 6.00 to 7.00

Name the value of pIC50 reported for COc1ccc(-c2cc3nccn3c(-c3cnn(C4(CC#N)CN(S(=O)(=O)C(F)(F)F)C4)c3)n2)cc1 [Example 158] when tested on JAK2 (Homo sapiens).
7.00 to 8.00

Name the value of pIC50 reported for CCn1cc(-c2cc3nccn3c(-c3cnn(C(CC#N)C4CC4)c3)n2)cn1 (stereo not shown) [Example 40] when tested on JAK2 (Homo sapiens).
7.00 to 8.00

* * *

pIC50: −log10 of the molar value.
A short record of pIC50 observed with JAK1 (Homo sapiens) follows.

Examples with answers:
CC(C)n1cc(-c2cc3nccn3c(-c3cnn(C4(CC#N)CN(S(=O)(=O)C(F)(F)F)C4)c3)n2)cn1 ... > 8.00
Cn1cc(-c2cc3nccn3c(-c3cnn(C(C)(CC#N)c4ccccc4)c3)n2)cn1 (stereo not shown) ... < 6.00
CC(C)OCCn1cc(-c2cc3nccn3c(-c3cnn(C(CC#N)C4CC4)c3)n2)cn1 (stereo not shown) ... 6.00 to 7.00
Cn1cc(-c2cc3nccn3c(-c3cnn(C4(CC#N)CN(c5ncccn5)C4)c3)n2)cn1 ... < 6.00
Cc1ncc(-c2cc3nccn3c(-c3cnn(C4(CC#N)CN(CC(F)(F)F)C4)c3)n2)s1 ... 6.00 to 7.00
CN1CCN(CCn2cc(-c3cc4nccn4c(-c4cnn(C(CC#N)C5CC5)c4)n3)cn2)CC1 (stereo not shown) ... 6.00 to 7.00
N#CCC(C1CC1)n1cc(-c2nc(-c3cncs3)cc3nccn23)cn1 (stereo not shown) ... 6.00 to 7.00
Cn1cc(-c2cc3nccn3c(-c3cnn(C(CC#N)c4cncc(Br)c4)c3)n2)cn1 (stereo not shown) ... 7.00 to 8.00

Would you kindly look at the next entry?
Name the value of pIC50 reported for Cn1cc(-c2cc3nccn3c(-c3cnn(C4(CC#N)CN(CCCF)C4)c3)n2)cn1 when tested on JAK1 (Homo sapiens).
6.00 to 7.00
